test system: NCI-H522 lung; assay: NCI-60 one-dose screen, 48 h (100 = growth as untreated, 0 = no growth, -100 = all killed); settings: 10 µM unless noted
The panel holds about 83,000 compounds, 20% with a hit somewhere; the sample as a whole holds those more often.
quantityKind: growth (%)
One number for each entry, in %.

Here are 3 compounds together with their reported answers.
Cc1nn(-c2ccccc2)c2ncc3c(c12)C(=O)N(Cc1ccccc1)C3=O | 59.9
O=C(CCc1nnc(Cn2ccnc2)o1)c1nc2ccccc2[nH]1 | 98.4
Cc1nn(-c2ccc(Br)cc2)c2nc3c(nc12)C(=O)C(=O)c1ccccc1-3 | 98.3

Please supply growth for each of the following items, keeping them in order.
1. COc1ccc(/C=C/C(=O)Nc2cccnc2Nc2ccc(F)cc2)cc1
2. Cc1cc2c(C#N)n3c(c2cc1C)C(=O)C(c1ccccc1)Oc1ccccc1-3 (stereo unspecified)
3. CCOC(=O)c1cc(-c2cccnc2)nc2c(Cl)cc(Cl)cc12
4. Nc1nc(N)c([N+](=O)[O-])c(=O)[nH]1
5. COc1ccc(C2=NNC(c3cc(Cc4ccc(O)c(C5CC(c6ccc(OC)cc6)=NN5)c4)ccc3O)C2)cc1 (stereo unspecified)
6. CC(C)(C)c1cc(O)c(O)c(C(C)(C)C)c1
7. O=c1[nH]c(=O)n(C2CC(O)C(CO)O2)cc1C(F)(F)F (stereo unspecified)

1: 92.5; 2: -35.7; 3: 93.6; 4: 103; 5: -7.59; 6: 0.232; 7: -12

# growth (compound: Nc1ccc(C2=NN(c3ccccc3)C(c3ccc(Cl)cc3)C2)cc1 (stereo unspecified) ) is 22.7

###

test system: HCC-2998 colon; assay: NCI-60 one-dose screen, 48 h (100 = growth as untreated, 0 = no growth, -100 = all killed); conditions: 10 µM unless noted
The panel holds about 83,000 compounds, 20% with a hit somewhere; the sample as a whole holds those more often. Active and inactive are the calls of the source. Rule for the calls: active = growth percent below 10; inactive = the rest.
Provide the recorded growth for the entries that follow.

COc1ccc(C2=NN(C(=O)c3cc(OC)c(OC)c(OC)c3)C(c3ccc(C#N)cc3)C2)cc1OC (stereo unspecified) | 35.2% (inactive)

Please supply growth for each of the following items, keeping them in order.
1. Cc1c(N(C)CS(=O)(=O)O)c(=O)n(-c2ccccc2)n1C
2. CC(=O)n1c2ccccc2c2ccccc21
3. Nc1nc(SCc2ccccc2Cl)c(-c2ccccc2)c(SCc2ccccc2Cl)n1
4. O=C1NCN(CCO)CN1
5. CC[C@@H]1OC(=O)[C@H](C)[C@@H](O[C@H]2C[C@@](C)(OC)[C@@H](O)[C@H](C)O2)[C@H](C)[C@@H](O[C@@H]2O[C@H](C)C[C@H](N(C)C)[C@H]2O)[C@](C)(O)C[C@@H](C)[C@@H]2N[C@@H](COCCOC)O[C@H]([C@H]2C)[C@]1(C)O
6. Cn1cnc([N+](=O)[O-])c1S(=O)(=O)Oc1ccc(Cl)cc1
7. COc1c(O)cc2oc3cc(O)c(CC=C(C)C)c(O)c3c(=O)c2c1C/C=C(\C)CCC=C(C)C
8. C[n+]1c2ccccc2c(Nc2ccc(N3CCCCC3)cc2)c2[nH]c3ccccc3c21

121% (inactive)
96.1% (inactive)
99% (inactive)
100% (inactive)
98.9% (inactive)
83.1% (inactive)
-0.115% (active)
-96.1% (active)

Please supply growth for each of the following items, keeping them in order.
1. O=c1ccn(C2CCCO2)c(=O)[nH]1 (stereo unspecified)
2. O=C(Nc1ccc(Nc2ccncc2)cc1)c1ccc(Nc2ccnc3ccc([N+](=O)[O-])cc23)cc1[N+](=O)[O-]
3. COc1ccc2c(c1)C(=O)/C(=C/c1cccc(OCC(=O)c3ccccc3)c1)CC2
4. O=C(Nc1cccc2ccccc12)c1cc2c(cc1Br)OCO2
5. O=C(Nc1cccc([N+](=O)[O-])c1)c1cccc(C(=O)Nc2cccc([N+](=O)[O-])c2)c1
6. c1cnc2n[nH]c(Nc3ncnc4c3sc3ncccc34)c2c1
7. O=[P@@]1(c2ccccc2)O[C@H](COCc2ccccc2)[C@@H](OCc2ccccc2)[C@H](OCc2ccccc2)[C@H]1NCc1ccccc1

["104% (inactive)", "104% (inactive)", "96.4% (inactive)", "97.3% (inactive)", "88.2% (inactive)", "108% (inactive)", "38.8% (inactive)"]

Please supply growth for each of the following items, keeping them in order.
1. C=C(C[C@@](O)(C(=O)Oc1ccccc1)C(=O)C1CCCCC1)c1ccccc1
2. Cc1ccsc1/C=C/C1=NCCCN1C
3. COc1ccc(-c2nn(-c3ccccc3)cc2/C=C2\SC(=S)N(CCc3ccc(O)cc3)C2=O)cc1

105% (inactive)
102% (inactive)
107% (inactive)

Please supply growth for each of the following items, keeping them in order.
1. Cc1nn(-c2ccccc2)c2nc3c(nc12)C(=O)CCC3
2. CCCCCCCCCCCCCCCCCc1nccn1CCO

92% (inactive)
55.4% (inactive)
